I'd appreciate it if you could supply BRET of receptor-RLuc8 with Venus-mGsi: Emax (% of 1 μM WKYMVm) values for the items below.
Target: T1, FLAG-Hs_FPR1 C-terminally fused to Renilla Luciferase 8 (human, UniProt P21462 1-350)
T1 sequence (looked up): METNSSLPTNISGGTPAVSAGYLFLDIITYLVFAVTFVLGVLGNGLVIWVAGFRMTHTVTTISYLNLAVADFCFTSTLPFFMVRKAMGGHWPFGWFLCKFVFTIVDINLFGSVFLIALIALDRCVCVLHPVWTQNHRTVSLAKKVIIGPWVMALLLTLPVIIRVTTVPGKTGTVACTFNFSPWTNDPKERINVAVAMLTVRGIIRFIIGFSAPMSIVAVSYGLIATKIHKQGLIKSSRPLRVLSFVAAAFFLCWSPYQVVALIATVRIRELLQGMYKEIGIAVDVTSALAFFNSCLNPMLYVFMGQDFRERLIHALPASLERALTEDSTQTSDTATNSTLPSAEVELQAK
Experiment: cell-based or functional assay
Where no end group is shown, it is not given here. [ ]: non-standard residue; d: D form. The star is where a group is joined. For = O=C*

Name the reported BRET of receptor-RLuc8 with Venus-mGsi: Emax (% of 1 μM WKYMVm) value associated with the binder WKYMV[dM] (the last residue is the D form; the bought peptide is probably also an amide (surmise); source: bought: Tocris) [WKYMVm]
112%

Name the reported BRET of receptor-RLuc8 with Venus-mGsi: Emax (% of 1 μM WKYMVm) value associated with the binder WKYMVM (synthetic hexapeptide, all L residues; also called L-enantiomer of WKYMVm; source: bought: Tocris)
44.1%

Name the reported BRET of receptor-RLuc8 with Venus-mGsi: Emax (% of 1 μM WKYMVm) value associated with the binder For-Met-Leu-Phe [fMet-Leu-Phe (fMLF)]
115%

Name the reported BRET of receptor-RLuc8 with Venus-mGsi: Emax (% of 1 μM WKYMVm) value associated with the binder For-MLFK [fMet-Leu-Phe-Lys (fMLFK)]
104%
